# System: HPIV3
# measurementParameters: read-out: IC50, HPIV3, MDCK
assayMetric: pIC50
Interpret pIC50 as the negative base-10 log of the concentration measured in mol/L.

**Q:** Given THIRELEDYIDNLLVRVMEETPSILRVPRKKRRQRRR [RBD] , respond with its pIC50.
**A:** 5.31
